- target.or.test.system: Proteasome subunit beta (Trypanosoma cruzi)
- assay.method.text: Trypanosoma cruzi proteasome chymotrypsin-like activity (TcProtChymo) assay.
- Type: functional
- Parameters: scale not given: in the data most compounds retested in dose-response had high values
- conditions.used: 9.37 µM
// NB: equality with 10% counts as Not met; only Percent Effect strictly below is Met

A selection of reference data follows.
Cc1cc(CN2CCCC2c2noc(C)n2)no1 (stereo unspecified)	Met
COCCN1CC(C(=O)NCc2ccnc(-n3cccn3)c2)CC1=O (stereo unspecified)	Met
Cc1ccsc1C(=O)N1C[C@@H]2CN(Cc3ccoc3)CCO[C@@H]2C1	Not met
CNc1nc(C)c(C(=O)N2CCCCC2CN2CCCCCC2)s1 (stereo unspecified)	Met
COc1cccc2c1OCC(C(=O)NC1CCN(S(C)(=O)=O)CC1)C2 (stereo unspecified)	Not met
CC(C)Oc1cccc(C(=O)C2CCCN(C(=O)c3ncn[nH]3)C2)c1 (stereo unspecified)	Not met
Cc1ncnc2c1CCN(Cc1ccc3c(c1)OCO3)CC2	Met
CCOc1nnc(CN(C)CC2CCCN2c2cccnn2)s1 (stereo unspecified)	Not met
CC(=O)N1CCCn2nc(CNS(=O)(=O)N3CCCCCC3)cc2C1	Not met
NC(=O)c1ccc(N2CCCCC2)c(NC(=O)c2cc(Br)ccc2F)c1	Not met

Lab note: next compound to report on.
Problem: Field: below-cutoff. Rule: recorded Percent Effect strictly less than 10%. Subject: CC(C)N(C)C(=O)C1=NOC2(CCN(C(=O)c3ccccn3)C2)C1 (stereo unspecified)
Result: Not met
